Biological target: Progesterone receptor (Homo sapiens)
Sequence (P06401 whole entry): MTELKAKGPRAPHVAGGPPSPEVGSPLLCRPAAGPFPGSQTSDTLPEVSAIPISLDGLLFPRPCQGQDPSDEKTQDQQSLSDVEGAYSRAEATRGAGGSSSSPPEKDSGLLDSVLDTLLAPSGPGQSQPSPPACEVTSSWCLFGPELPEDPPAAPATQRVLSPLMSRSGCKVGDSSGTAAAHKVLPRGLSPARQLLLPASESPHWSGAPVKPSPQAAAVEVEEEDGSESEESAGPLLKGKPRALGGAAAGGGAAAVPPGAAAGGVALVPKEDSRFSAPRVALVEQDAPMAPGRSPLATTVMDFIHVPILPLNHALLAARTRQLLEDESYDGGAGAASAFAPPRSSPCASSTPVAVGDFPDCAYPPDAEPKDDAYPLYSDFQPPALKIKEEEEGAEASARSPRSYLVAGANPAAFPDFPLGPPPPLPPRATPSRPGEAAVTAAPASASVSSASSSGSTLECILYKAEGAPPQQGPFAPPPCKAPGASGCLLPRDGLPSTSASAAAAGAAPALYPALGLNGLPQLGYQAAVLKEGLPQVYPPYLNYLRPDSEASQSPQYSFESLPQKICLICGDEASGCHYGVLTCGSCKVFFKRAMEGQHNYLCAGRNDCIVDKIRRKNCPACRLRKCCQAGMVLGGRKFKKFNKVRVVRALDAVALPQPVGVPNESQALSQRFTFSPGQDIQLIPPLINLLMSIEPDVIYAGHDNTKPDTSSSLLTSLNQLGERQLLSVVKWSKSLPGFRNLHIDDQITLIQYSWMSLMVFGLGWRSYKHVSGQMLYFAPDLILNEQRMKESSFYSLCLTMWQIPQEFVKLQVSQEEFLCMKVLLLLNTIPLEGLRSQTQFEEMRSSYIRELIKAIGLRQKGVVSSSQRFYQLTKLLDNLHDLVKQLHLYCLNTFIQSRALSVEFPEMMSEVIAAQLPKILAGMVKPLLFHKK
A compilation of published Ki results with Progesterone receptor (Homo sapiens).
Please give a number only; it is taken to be in nM.

# input Given the molecule C[C@H]1CC(C)(C)Nc2ccc3c(c21)[C@H](c1ccc(Cl)cc1)Oc1ccccc1-3 , what is its reported Ki?
# output 10.1

# input What measured Ki goes with COc1ccc(C(c2ccccc2)c2c[nH]c3ccccc23)cc1 (stereo not given) ?
# output 478

# input Suppose we examine the molecule CC/C(=C1/c2ccccc2COc2ccccc21)c1cccc(NS(C)(=O)=O)c1 ; what Ki value has been reported?
# output 15.5

# input Recorded Ki for C[C@H]1CN(S(=O)(=O)c2ccc(Cl)cc2)N=C1c1ccc(Cl)c(Cl)c1 , please?
# output 20

# input Recorded Ki for O=S(=O)(c1ccc(Cl)cc1Cl)N1CCCCC(c2ccc(Cl)c(Cl)c2)=N1 , please?
# output 50.1

# input Which Ki value belongs to CCN(C)C(=O)c1ccc(-c2ccc3c(n2)Oc2ccccc2[C@@H]3C(C)(C)C(=O)Nc2nncs2)cc1F ?
# output 1830

# input Return reported Ki; argument: C=C1CCC[C@@H](C)[C@@H]1Cc1cc(OC)c(Br)cc1O
# output 69

# input Given the molecule C[C@]12Cn3cnc(-c4ccc(F)cc4)c3C=C1CCC[C@@H]2[C@](C)(O)c1cccs1 , what is its reported Ki?
# output 230

# input Given the entry Cc1c(Cl)cccc1S(=O)(=O)N1CCCCC(c2cccc(Cl)c2)=N1 , report its measured Ki.
# output 316

# input Any idea what its Ki is? The molecule is CC(C)(C(=O)NC(N)=O)[C@@H]1c2ccc(-c3ccc(C(=O)N4CCOCC4)nc3)nc2Oc2c(F)cccc21
# output 22.7

# input Query (molecule): CC(C)n1cc(-c2ccc(C#N)c(F)c2)c2ccc(NS(C)(=O)=O)cc21 ; field requested: Ki
# output 0.214

# input Looking for the measured Ki of CC1=CC(C)(C)Nc2cc3c(cc21)-c1c(F)cccc1C3=O , can you help?
# output 29.1

# input Entry CC(C)(C(=O)NC(N)=O)[C@@H]1c2ccc(-c3ccc(C(=O)N4CCCC4)cc3)nc2Oc2c(F)cccc21 has what Ki?
# output 604

# input Item C=C1CCC(C)(C)C1Cc1cc(OC)c(Br)cc1O (stereo not given) has what recorded Ki?
# output 441

# input Requested field: Ki. Item: CC1=CC(C)(C)Nc2ccc(-c3cccc(F)c3)cc21
# output 182

# input Can you share its Ki? I mean this molecule: CC1=CC(C)(C)Nc2ccc(-c3ccc([N+](=O)[O-])s3)cc21
# output 2.6
